- System: A. baumannii ATCC 17978
- Format: cell-based, Acinetobacter baumannii
- MEASUREMENT_PARAMETERS: UTBLP alone, plate with niclosamide
Non-standard residues stand in square brackets, D forms with d. Residues, ends and D or L forms follow the SMILES beside them. *: point of attachment. Lys(Me2) = CN(C)CCCC[C@H](N)C(=O)O; Lys(Me) = CNCCCC[C@H](N)C(=O)O; Octanoyl = CCCCCCCC(=O)*
RECORDED_METRIC: MICUTBLP (µg/mL)
Numbers only, in µg/mL.

CCCCCCCC(=O)NCCCC[C@H](NC(=O)CCCCCCC)C(=O)N[C@@H](CCCCNC)C(=O)N[C@@H](CCCCNC)C(=O)N[C@@H](CCCCNC)C(=O)N[C@@H](CCCCNC)C(N)=O [UTBLP 6] (Octanoyl-K(Octanoyl)[Lys(Me)][Lys(Me)][Lys(Me)][Lys(Me)]-NH2) :: 64

Next up:
## Input Please look up its MICUTBLP: CCCCCCCC(=O)NCCCC[C@H](NC(=O)CCCCCCC)C(=O)N[C@@H](CCCCN(C)C)C(=O)N[C@@H](CCCCN(C)C)C(=O)N[C@@H](CCCCN(C)C)C(=O)N[C@@H](CCCCN(C)C)C(N)=O [UTBLP 7] (Octanoyl-K(Octanoyl)[Lys(Me2)][Lys(Me2)][Lys(Me2)][Lys(Me2)]-NH2)
## Output 128
